# assayName: Dissociation constant (pKa3)
# Format: physicochemical
# runConditions: read-out: pKa3
Cut-off 6 on pKa, inclusive. At or above means rule met; below means rule not met.

compound | assignedLabel
O=P(O)(O)Cc1cccc(P(=O)(O)O)c1 | rule met

Task: Assess whether reported pKa for C=C(CP(=O)(O)O)CP(=O)(O)O sits at 6 or higher.
Output: rule met

Task: Proceed to O=P(O)(O)c1cccc(C(O)P(=O)(O)O)c1 (configuration not stated)
Output: rule met

Task: Another compound to look at: O=P(O)(O)c1cccc(C(F)(F)P(=O)(O)O)c1
Output: rule not met

Task: What do you have for O=P(O)(O)C(O)c1cccc(C(O)P(=O)(O)O)n1 (configuration not stated) ?
Output: rule met

Task: Please give the result for O=P(O)(O)c1cccc(C(F)P(=O)(O)O)c1 (configuration not stated) too.
Output: rule not met

Task: Next compound: O=P(O)(O)C(F)c1cccc(C(F)P(=O)(O)O)n1 (configuration not stated)
Output: rule not met

Task: Moving on to the next compound: O=P(O)(O)Cc1cccc(CP(=O)(O)O)n1
Output: rule met

Task: Another compound: O=P(O)(O)Cc1cccc(C(O)P(=O)(O)O)c1 (configuration not stated)
Output: rule met

Task: Please do the same for Cc1cc(C)c(CP(=O)(O)O)cc1CP(=O)(O)O as well.
Output: rule met

Task: What do you get for O=P(O)(O)C(F)(F)c1cccc(C(F)(F)P(=O)(O)O)n1 ?
Output: rule not met

Task: Follow-up entry: Cc1cc(C)c(C(F)(F)P(=O)(O)O)cc1C(F)(F)P(=O)(O)O
Output: rule not met
